- Test system: S. aureus ATCC 29213
- Construct: ATCC 29213
- assay_procedure: microbe, parasite or virus in culture
- Design: broth microdilution in Mueller-Hinton broth, minimum inhibitory concentration
- test_settings: Staphylococcus aureus, ATCC29213, 18 h
- Description: Antimicrobial activities were measured against seven indicator strains (Staphylococcus aureus ATCC 29213, Escherichia coli ATCC 25922, Enterococcus faecalis ATCC 29212, Acinetobacter baumannii ATCC 19606, Bacillus subtilis SCSIO BS01, Micrococcus Luteus SCSIO ML01, and methicillin resistant S. aureus ATCC 43300) by the broth microdilution method[8],[9]. Bacterial strains were grown to achieve an optical absorbance of 0.04−0.06 at 600 nm on a rotary shaker at 37 °C. […]
recorded_metric: MIC

Would you please look over these solved cases?
molecule	MIC
Cc1ccc2c3c(c(O)cc2c1O)-c1c(O)cccc1C3=O [compound 12, isoprefluostatin]	64 µg/mL
COC1c2c(cc(O)c3c2C(=O)c2c(C4c5c(cc(O)c6c5C(=O)c5cccc(O)c5-6)C(=O)C5(C)OC45)ccc(O)c2-3)C(=O)C2(C)OC12 (centres unmarked) [compound 26, difluostatin H]	> 64 µg/mL
CC(=O)NN1c2c(c3c(c4c2C(=O)C(C)(O)C=C4)C(=O)c2cccc(O)c2-3)OC2C1c1c(cc(O)c3c1C(=O)c1cccc(O)c1-3)C(=O)C2(C)O (centres unmarked) [compound 15, difluostatin B]	> 64 µg/mL
Cc1cc(O)cc(O)c1C(=O)c1c(O)cccc1Cc1cc2c(c(=O)o1)C1c3c(cc(O)c4c3C(=O)c3cccc(O)c3-4)C(=O)C(C)(O2)C1O (centres unmarked) [compound 16, difluostatin C]	> 64 µg/mL
COc1cc(Cc2cnc(N)nc2N)cc(OC)c1OC [Trimethoprim]	0.5 µg/mL
C[C@]12O[C@H]1[C@H](Nc1ccc(C(=O)O)cc1)c1c(cc(O)c3c1C(=O)c1cccc(O)c1-3)C2=O [compound 14, FST S]	> 64 µg/mL
CC12OC1C(O)c1c(cc(O)c3c1C(=O)c1c(C4c5c(cc(O)c6c5C(=O)c5cccc(O)c5-6)C(=O)C5(C)OC45)ccc(O)c1-3)C2=O (centres unmarked) [compound 24, difluostatin F]	> 64 µg/mL

Please turn your attention to the following entry.
Data request: Supply reported MIC belonging to this molecule: Cc1ccc2c(c1)OC1(C)C(=O)c3cc(O)c4c(c3C(N2)C1O)C(=O)c1cccc(O)c1-4 (centres unmarked) [compound 33, 33]
Data returned: > 64 µg/mL

Source of measurements: paper PMC5970136
